- Measurement target: Voltage-gated potassium channel subunit beta-2 (Rattus norvegicus)
- Experiment: enhancers of rat Kvbeta2 NADPH turnover – biochemical, NADPH fluorescence, primary screen (AID 623);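 further: fluorescence intensity change per second fitted from 20 to 320 s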
- Conditions used: Recombinant KvBeta, NADPH fluorescence decrease slope, 10 min; at 10 µM; active compounds read low
Please respond with reported NADPH fluorescence slope for every item in the list.
Answer as a number with no unit attached.

API: value(readout= NADPH fluorescence slope, system= Voltage-gated potassium channel subunit beta-2 (Rattus norvegicus), query= O=C(NCc1cccs1)C1CC(c2ccccc2O)=NO1 (stereo not given) )
-2.2e-05

What do we get for "CCOC(=O)Nc1ccc2c(CN3C(=O)NC4(CCCC4)C3=O)cc(=O)oc2c1" ?
-2.4e-05

What do we get for "COc1ccc(CCNC(=O)CSc2nnc(CNc3ccc(Cl)cc3)o2)cc1OC" ?
-1.9e-05

What do we get for "CCCCCC(=O)N(CN1C(=O)CCC1=O)c1ccccc1" ?
-4e-05

What do we get for CCCCCCn1c(CN2CCCC(C)C2)nc2c1c(=O)n(C)c(=O)n2C (stereo not given) ?
-4.7e-05

What do we get for "O=C1CCC(=O)N1OCCCOc1ccc(Br)cc1Cl" ?
2e-05

What do we get for "COc1ccc(CC(=O)Nc2c3c(nn2-c2cccc(Cl)c2)CS(=O)(=O)C3)cc1" ?
1.2e-05

What do we get for "CCn1nnnc1SCC(=O)Nc1nc(-c2cccs2)cs1" ?
-4.6e-05

What do we get for "Cc1cnc(C(=O)Nc2ccc(N3CCOCC3)cc2)cn1" ?
-2.8e-05

What do we get for CCOc1ccccc1C1CC(=O)NC(SCC)=C1C#N (stereo not given) ?
-7.3e-05

What do we get for "O=C(CN1C(=O)c2ccccc2S1(=O)=O)Nc1ccc(S(=O)(=O)N2CCCCCC2)cc1" ?
-5.4e-05

What do we get for "COc1ccc(C)cc1NC(=O)CN1CCN(S(=O)(=O)c2ccc(Cl)cc2)CC1" ?
-3e-05

What do we get for "N#Cc1ccc(CSc2nnc(-c3ccccn3)n2-c2ccccc2)cc1" ?
-1.1e-05

What do we get for "CN1CCN(c2nc3c(c(=O)[nH]c(=O)n3C)n2CCOc2ccccc2)CC1" ?
-4.3e-05

What do we get for "O=C(c1cc(-c2ccco2)nn1-c1cccc(Cl)c1)N1CCCCC1" ?
-1.4e-05

What do we get for CCCOc1ccc([C@@H]2C3CN(C(=O)OCC)CC=C3C(C#N)=C(N)C2(C#N)C#N)cc1OC (stereo not given in full) ?
-2.5e-05

What do we get for "C1=C(CCNc2ncnc3c2cnn3-c2ccccc2)CCCC1" ?
-6.3e-05

What do we get for "CC(=O)N1CCN(S(=O)(=O)c2ccc(S(=O)(=O)NCC(C)C)cc2)CC1" ?
-3.9e-05

What do we get for "O=C(NCCC1=CCCCC1)C1CCN(S(=O)(=O)c2cccc3nsnc23)CC1" ?
-6e-05

What do we get for O=C(CC1(O)C(=O)Nc2ccccc21)c1ccc2c(c1)OCO2 (stereo not given) ?
2.8e-06

What do we get for "COc1ccc(-c2noc(CSc3nc4ccccc4c(=O)n3-c3ccccc3)n2)cc1OC" ?
-4.5e-05

What do we get for "CCOC(=O)C1CCN(C(=O)Nc2ccc3nc(C)c(C)nc3c2)CC1" ?
-2.9e-06

What do we get for "Nn1cc(-c2ccccc2)nc1SCC(=O)N1CCN(S(=O)(=O)c2ccccc2)CC1" ?
4.3e-05

What do we get for "CCOC(=O)N1CCN(Cc2cc(=O)oc3ccc4ccccc4c23)CC1" ?
8.3e-06

What do we get for CCSc1nnc(N2C(=O)CC(c3ccsc3)C3=C2CC(C)(C)CC3=O)s1 (stereo not given) ?
-4.6e-05

What do we get for "O=C(OCc1nnc(-c2ccccc2)o1)c1ccc2ccccc2n1" ?
7e-05

What do we get for "Cc1cc(=O)n(CC(C)C)c(O)c1C#N" ?
-3.7e-05

What do we get for FC(F)(F)c1ccc(Sc2nnc(-c3cccs3)n2CC2CCCO2)nc1 (stereo not given) ?
-7.7e-06

What do we get for "CCC(=O)N1CCc2cc(S(=O)(=O)CCC(=O)Nc3ccc(C)c(F)c3)ccc21" ?
0.000146

What do we get for "COC(=O)Cn1c2ccccc2c2nc(C)sc21" ?
7e-06

What do we get for "Cn1c(COc2ccccc2)nnc1SCC(=O)Nc1ccc(N2CCOCC2)c(Cl)c1" ?
-6.6e-05

What do we get for "COc1cc2[nH]c(=O)n(CCCCCC(=O)N3CCN(c4ccccn4)CC3)c(=O)c2cc1OC" ?
-2.4e-05

What do we get for "CCOC(=O)/C=C1\SCC(=O)N1Cc1nnc(-c2ccccc2Br)o1" ?
-5.3e-05

What do we get for "O=C(NC1=NCCS1)c1ccc2c(c1)C(=O)N(Cc1ccco1)C2=O" ?
2.7e-06

What do we get for "O=C(NCCCN1CCN(CCCNC(=O)c2ccc(F)cc2)CC1)c1ccc(F)cc1" ?
1.1e-05

What do we get for "NC(=O)CSc1nnc(-c2cnccn2)n1-c1ccccc1" ?
-4.9e-05

What do we get for "CSc1nc2ccc(S(=O)(=O)N3CCOCC3)cc2s1" ?
-6.4e-05

What do we get for "CCCC(=O)Nc1ccc(NC(=O)C2CC2)cn1" ?
1.9e-05

What do we get for "O=C(Cc1nn[nH]n1)NCCC1=CCCCC1" ?
-8.7e-06

What do we get for "Cc1noc(NS(=O)(=O)c2ccc(N3C(=O)c4ccccc4C3=O)cc2)c1C" ?
-3.7e-05

What do we get for "Cc1cccc(N(CC(=O)Nc2ccc(CC#N)cc2)S(C)(=O)=O)c1" ?
-2.6e-05

What do we get for "CSc1ccc(-c2cc(=O)c3ccccc3o2)cc1" ?
1.2e-05

What do we get for "COC(=O)c1ccc(CSc2nc3c(cnn3-c3ccc(C)c(C)c3)c(=O)[nH]2)o1" ?
0.000113

What do we get for "O=C(Nc1cccc(OCC(=O)N2CCOCC2)c1)C1CCCCC1" ?
-5.6e-05

What do we get for NCC(O)COc1ccc2c(c1)OCO2 (stereo not given) ?
-0.000108
